- Tested System: α-amylase (Homo sapiens)
- Sequence (P04746 16-511): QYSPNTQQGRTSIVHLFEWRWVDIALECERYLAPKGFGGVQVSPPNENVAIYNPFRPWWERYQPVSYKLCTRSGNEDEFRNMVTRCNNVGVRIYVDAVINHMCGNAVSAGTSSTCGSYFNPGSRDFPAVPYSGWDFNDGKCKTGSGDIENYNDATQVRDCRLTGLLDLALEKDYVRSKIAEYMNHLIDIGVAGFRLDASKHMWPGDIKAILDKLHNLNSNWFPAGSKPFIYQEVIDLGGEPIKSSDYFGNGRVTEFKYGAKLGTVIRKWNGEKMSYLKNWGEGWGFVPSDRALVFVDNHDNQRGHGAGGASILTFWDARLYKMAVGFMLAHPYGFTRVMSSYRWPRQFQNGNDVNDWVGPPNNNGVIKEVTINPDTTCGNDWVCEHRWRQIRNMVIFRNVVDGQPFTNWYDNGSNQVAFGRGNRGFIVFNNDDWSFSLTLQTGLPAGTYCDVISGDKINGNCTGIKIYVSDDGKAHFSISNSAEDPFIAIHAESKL
- Procedure Text: in-vitro α-amylase inhibitory activity
- Type: biochemical
Experimental Readout: IC50 (µM)
Answers are plain numbers, in µM.

query: Dear colleague, I am looking for the recorded IC50 of the following compound: COc1ccc2cc3[n+](cc2c1OC)CCc1cc2c(cc1-3)OCO2
result: 200

====

- Tested System: α-glucosidase (Saccharomyces cerevisiae)
- Sequence (P53341 whole entry): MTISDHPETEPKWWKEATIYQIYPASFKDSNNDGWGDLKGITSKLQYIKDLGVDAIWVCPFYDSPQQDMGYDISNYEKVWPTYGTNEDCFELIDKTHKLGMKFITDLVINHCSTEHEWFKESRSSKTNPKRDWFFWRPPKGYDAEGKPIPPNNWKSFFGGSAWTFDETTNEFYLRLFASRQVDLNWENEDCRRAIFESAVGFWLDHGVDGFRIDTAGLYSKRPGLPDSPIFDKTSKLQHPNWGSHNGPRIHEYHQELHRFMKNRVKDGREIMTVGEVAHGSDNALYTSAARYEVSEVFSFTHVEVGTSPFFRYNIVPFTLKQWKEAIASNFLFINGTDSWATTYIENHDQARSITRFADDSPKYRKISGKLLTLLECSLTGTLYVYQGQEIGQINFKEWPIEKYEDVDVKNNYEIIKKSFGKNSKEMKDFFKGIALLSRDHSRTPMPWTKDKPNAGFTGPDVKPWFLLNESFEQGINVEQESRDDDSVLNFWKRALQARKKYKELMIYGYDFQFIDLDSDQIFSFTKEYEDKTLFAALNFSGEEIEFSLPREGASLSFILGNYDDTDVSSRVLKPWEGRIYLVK
- Procedure Text: in-vitro α-glucosidase inhibitory activity
- Assay type: biochemical
Experimental Readout: pIC50
One number for each entry, as −log10 of the molar value.

query: For the compound shown here, COc1ccc2cc3[n+](cc2c1OC)CCc1cc2c(cc1-3)OCO2 , give the reported pIC50.
result: 3.24
